Target: Phosphatidylinositol 4,5-bisphosphate 3-kinase catalytic subunit alpha isoform (Homo sapiens)
Sequence (P42336 whole entry, canonical isoform): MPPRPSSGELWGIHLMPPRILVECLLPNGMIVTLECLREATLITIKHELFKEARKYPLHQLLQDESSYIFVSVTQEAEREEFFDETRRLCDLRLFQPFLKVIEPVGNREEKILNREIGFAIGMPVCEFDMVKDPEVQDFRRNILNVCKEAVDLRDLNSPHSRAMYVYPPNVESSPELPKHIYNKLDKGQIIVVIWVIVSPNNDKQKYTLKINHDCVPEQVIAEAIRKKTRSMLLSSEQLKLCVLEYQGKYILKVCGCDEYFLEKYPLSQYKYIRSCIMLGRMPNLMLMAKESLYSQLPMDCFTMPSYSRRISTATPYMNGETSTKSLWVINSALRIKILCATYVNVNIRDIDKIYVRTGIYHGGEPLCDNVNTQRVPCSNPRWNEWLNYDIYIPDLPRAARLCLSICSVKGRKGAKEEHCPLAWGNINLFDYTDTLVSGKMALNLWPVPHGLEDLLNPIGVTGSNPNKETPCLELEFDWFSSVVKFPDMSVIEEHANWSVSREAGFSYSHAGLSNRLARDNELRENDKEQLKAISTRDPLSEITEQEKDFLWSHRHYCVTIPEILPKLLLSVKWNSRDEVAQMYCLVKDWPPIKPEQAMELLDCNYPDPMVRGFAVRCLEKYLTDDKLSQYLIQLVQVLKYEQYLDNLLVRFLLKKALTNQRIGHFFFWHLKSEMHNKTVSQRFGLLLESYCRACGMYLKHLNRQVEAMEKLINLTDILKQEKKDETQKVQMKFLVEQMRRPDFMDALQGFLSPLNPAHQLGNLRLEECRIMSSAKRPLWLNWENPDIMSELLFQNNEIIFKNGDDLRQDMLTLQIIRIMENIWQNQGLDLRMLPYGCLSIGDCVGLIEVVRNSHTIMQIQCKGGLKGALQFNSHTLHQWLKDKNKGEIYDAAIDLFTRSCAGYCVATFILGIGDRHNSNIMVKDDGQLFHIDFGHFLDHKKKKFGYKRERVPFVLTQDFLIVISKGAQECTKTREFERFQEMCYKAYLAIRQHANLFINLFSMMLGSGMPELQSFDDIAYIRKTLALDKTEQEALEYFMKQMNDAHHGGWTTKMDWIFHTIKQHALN
QUANTITY_NAME: Ki (nM)

- Cc1nc(N)nc(-c2cccnc2Nc2cnc(Cl)c(NS(=O)(=O)N3CCOCC3)c2)n1: 16
- COCCOc1cnc(Nc2cnc(Cl)c(NS(C)(=O)=O)c2)c(-c2nc(C)nc(N)n2)c1: 18
- Cc1nc(N)nc(-c2cc(Cl)cnc2Nc2cnc(Cl)c(N(C)S(C)(=O)=O)c2)n1: 311
